Assay: activity coefficient (dimensionless); of the first substance listed, at infinite dilution; xn = mol fraction of the nth substance listed
Details: 332.8 K; 101.3 kPa; Liquid; Chromatography; x1 = 0
List of activity coefficient values.
Please give the numeric answer without any surrounding text.

Please review the entries below; each comes with its answer.
CCCCCCCCC [nonane] + CCn1cc[n+](C)c1.N#C[B-](C#N)(C#N)C#N; 63.5
CCCCCCC [heptane] + CCn1cc[n+](C)c1.N#C[B-](C#N)(C#N)C#N; 23.8
C1CCCCC1 [cyclohexane] + CCn1cc[n+](C)c1.N#C[B-](C#N)(C#N)C#N; 9.85
CCCCCC [hexane] + CCn1cc[n+](C)c1.N#C[B-](C#N)(C#N)C#N; 12.5
CC1CCCCC1 [methylcyclohexane] + CCn1cc[n+](C)c1.N#C[B-](C#N)(C#N)C#N; 15.2
CCCCC [pentane] + CCn1cc[n+](C)c1.N#C[B-](C#N)(C#N)C#N; 5.92

Please look at the following molecule next.
# query: activity coefficient of entry CCCCCCCC [octane] + CCn1cc[n+](C)c1.N#C[B-](C#N)(C#N)C#N 40.7

Just for reference, the NIST ThermoML archive (doi:10.1016/j.jct.2010.02.006) is where these values come from.
